# Tested on: mouse leukemia, P388 cells
# assay-remarks: In vitro growth inhibition of P388 cells, 72 hours
# Format: cell-based
# condition: P388, 72 h
measured-quantity: IC50

Please review the entries below; each comes with its answer.
Annotate the compound COc1cccc2c1C(=O)c1c(O)c3c(c(O)c1C2=O)C[C@@](O)(C(=O)CO)C[C@@H]3O[C@H]1C[C@H](OC(=O)CN)[C@H](OC(=O)CN)[C@H](C(F)(F)F)O1 [Compound 25] with its measured IC50.
< 9.8 ng/mL

Annotate the compound COc1cccc2c1C(=O)c1c(O)c3c(c(O)c1C2=O)C[C@@](O)(C(=O)CO)C[C@@H]3O[C@H]1C[C@H](N)[C@H](O)[C@H](C)O1 [Adriamycin, adriamycin, reference compound] with its measured IC50.
33 ng/mL

Annotate the compound COc1cccc2c1C(=O)c1c(O)c3c(c(O)c1C2=O)C[C@@](O)(C(=O)CO)C[C@@H]3O[C@H]1C[C@H](OC(=O)[C@H](C)N)[C@H](OC(=O)[C@H](C)N)[C@H](C(F)(F)F)O1 [Compound 43] with its measured IC50.
< 9.8 ng/mL

New cases:
Annotate the compound COc1cccc2c1C(=O)c1c(O)c3c(c(O)c1C2=O)C[C@@](O)(C(=O)CO)C[C@@H]3O[C@@H]1O[C@@H](C)[C@@H](OC(=O)CN)[C@@H](OC(=O)CN)[C@H]1F [Compound 11a] with its measured IC50.
< 9.8 ng/mL

Annotate the compound COc1cccc2c1C(=O)c1c(O)c3c(c(O)c1C2=O)C[C@@](O)(C(=O)CO)C[C@@H]3O[C@@H]1O[C@@H](C)[C@@H](OC(=O)[C@@H](N)C(C)C)[C@@H](OC(=O)[C@@H](N)C(C)C)[C@H]1F [Compound 11d] with its measured IC50.
< 9.8 ng/mL

Annotate the compound COc1cccc2c1C(=O)c1c(O)c3c(c(O)c1C2=O)C[C@@](O)(C(=O)CO)C[C@@H]3O[C@@H]1O[C@@H](C)[C@@H](OC(=O)[C@H](C)N)[C@@H](OC(=O)[C@H](C)N)[C@H]1F [Compound 11b] with its measured IC50.
< 9.8 ng/mL
